Reported IC50, ACTH-induced cAMP, MC3R cells by item:
- experimental system: T1, human ACTH 1-39 (human, not fully specified; N-terminal biotin in the ELISA and HTRF binding assays (p-1487, p-1488); 125I on Tyr23 in Example 9 (p-1542); unlabelled in SPR. Letters unchanged.)
- T1 peptide: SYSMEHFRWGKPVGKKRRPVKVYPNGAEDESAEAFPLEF
- measurement protocol: cell-based or functional assay
experimental endpoint: IC50, ACTH-induced cAMP, MC3R cells

- Ab1 (antibody, V domains shown, Full-length rabbit/human chimeric antibody, HEK-293) VH: QSVKESGGRLVTPGTPLTLTCTVSGFSLSNYDMIWVRQAPGKGLESIGMIYDDGDTYYASWAKGRFTISKTSTTVDLKIISPTTEDTATYFCVKGVSNHWGPGTLVTVSS VL: DVVMTQTPASVEAAVGGTVTIKCQASQSISSYLAWYQQKPGQPPKLLIYSASTLASGVPSRFKGRGSGTEFTLTISDLECADAATYYCQSYDGSSGSSYGVGFGGGTEVVVKR: 101 nM
- Ab10 (antibody, V domains shown) VH: QSVEESGGRLVTPGTPLTLTCTVSGFSLSSADMIWVRQAPGKGLESIGMIYDDGDTYYATWAKGRFTISKTSTTVDLKIISPTTEDTATYFCVKGVSSVWGQGTLVTVSS VL: DVVMTQTPASVEAAVGGTVTINCQASENIYRSLAWYQQKPGQPPKLLIYSASTLASGVPSRFKGSGSGTEFTLTISDLECADAATYYCQSYDGSSSSSYGVGFGGGTEVVVKR: 133 nM
